Every entry's value here was drawn from patent US20240269139A1.

# Tested on: protein kinases (human kinome) (Homo sapiens)
# Format: cell-based
# Condition context: experiment wp146
Assay readout: logFC CDK2 (P24941-1)

Compound | Assay readout | Recorded result
Cc1cc(S(=O)(=O)NCCOCCOCCOCCOCCNc2cccc3c2C(=O)N(C2CCC(=O)NC2=O)C3=O)ccc1Nc1ncc(Br)c(Nc2cccc(F)c2C(N)=O)n1 (stereo not shown) [TMX.02.172] | logFC CDK2 (P24941-1) | −2.199
Cc1cc(Nc2ncc(Br)c(Nc3cccc(F)c3C(N)=O)n2)ccc1S(=O)(=O)NCCOCCOCCOCCOCCNc1cccc2c1C(=O)N(C1CCC(=O)NC1=O)C2=O (stereo not shown) [TMX.02.174] | logFC CDK2 (P24941-1) | −2.295
NC(=O)c1c(F)cccc1Nc1nc(NC2CCN(S(=O)(=O)CCNC(=O)CCCCCCCCOc3cccc4c3C(=O)N(C3CCC(=O)NC3=O)C4=O)CC2)ncc1Br (stereo not shown) [TMX.01.160] | logFC CDK2 (P24941-1) | −1.971

Now take the following compound into account.
Prompt line: Given NC(=O)c1c(F)cccc1Nc1nc(Nc2ccc(S(=O)(=O)NCCOCCOCCOCCOCCNc3cccc4c3C(=O)N(C3CCC(=O)NC3=O)C4=O)cc2)ncc1Br (stereo not shown) [TMX.02.138] , report its logFC CDK2 (P24941-1) on protein kinases (human kinome) (Homo sapiens).
Response line: −2.27
